These entries and their values trace back to ChEMBL document CHEMBL2375307.

measurement-protocol: Toxicity in brine shrimps cysts assessed as mortality after 24 hrs relative to control
Type: organism-based
experimental-setup: artemia, in vivo
LC50 at 24 h less than 20 µg/mL is Met; LC50 at 24 h greater than or equal to 20 µg/mL is Not met.

Answered examples (4):
compound | category-label
CC1(C)CC(=O)C2=C(C1)N(c1cccc(C(F)(F)F)c1)C(N)=C(C#N)C2c1cc2cc(Cl)ccc2nc1Oc1ccc(C#N)cc1 (stereo not given) | Not met
N#CC1=C(N)N(c2cccc(C(F)(F)F)c2)C2=C(C(=O)CCC2)C1c1cc2cc(Cl)ccc2nc1Oc1ccc(C#N)cc1 (stereo not given) | Not met
N#CC1=C(N)N(c2ccc(F)c(F)c2)C2=C(C(=O)CCC2)C1c1cc2cc(Cl)ccc2nc1Oc1ccc(C#N)cc1 (stereo not given) | Met
Cc1ccc2nc(Oc3ccc(C#N)cc3)c(C3C(C#N)=C(N)N(c4cc(F)ccc4F)C4=C3C(=O)CC(C)(C)C4)cc2c1 (stereo not given) | Not met

Now examine the next entry.
Decide: LC50 at 24 h of Cc1ccc2nc(Oc3ccc(C#N)cc3)c(C3C(C#N)=C(N)N(c4cccc(C(F)(F)F)c4)C4=C3C(=O)CC(C)(C)C4)cc2c1 (stereo not given) strictly below 20 µg/mL? Met
